- experimental.details: TD-6450 phase I clinical study (SAD/MAD): pharmacokinetics
- Type: in vivo, human
- test.context: male, human, plasma, oral, 30 mg, Male subjects, SAD arm NCT02022306, Dose 30.00, 96 Hours; read-out: Concentration
measure: concentration at 96 h (ng/mL)
Lab book: enter the figure in ng/mL, no units written.

Please give measured concentration at 96 h of the following entry: `CNC(=O)N1C[C@@H](C)N(c2ccc(C(=O)Nc3ccc(-c4ccc(-c5c[nH]c([C@@H]6CCCN6C(=O)[C@@H](NC(=O)OC)C(C)C)n5)cc4)c(OC(F)(F)F)c3)cn2)C[C@@H]1C` 5.25

====

- experimental.details: TD-6450 phase I clinical study (SAD/MAD): pharmacokinetics
- Type: in vivo, human
- test.context: male, human, plasma, oral, 30 mg, Male subjects, SAD arm NCT02022306, Dose 30.00, 72 Hours; read-out: Concentration (ng/ml)
measure: concentration at 72 h (ng/mL)
State the answer as a number, implicitly in ng/mL.

Write down concentration at 72 h measured for item `CNC(=O)N1C[C@@H](C)N(c2ccc(C(=O)Nc3ccc(-c4ccc(-c5c[nH]c([C@@H]6CCCN6C(=O)[C@@H](NC(=O)OC)C(C)C)n5)cc4)c(OC(F)(F)F)c3)cn2)C[C@@H]1C` 5.73

====

- experimental.details: TD-6450 phase I clinical study (SAD/MAD): pharmacokinetics
- Format: in vivo, human
- test.context: female, human, plasma, oral, 30 mg, Female subjects, SAD arm NCT02022306, Dose 30.00, 144 Hours; read-out: Concentration
measure: concentration at 144 h (ng/mL)
Write the answer as a number in ng/mL, unit excluded.

Consider the compound `CNC(=O)N1C[C@@H](C)N(c2ccc(C(=O)Nc3ccc(-c4ccc(-c5c[nH]c([C@@H]6CCCN6C(=O)[C@@H](NC(=O)OC)C(C)C)n5)cc4)c(OC(F)(F)F)c3)cn2)C[C@@H]1C` and give its recorded concentration at 144 h. 6.93

====

- experimental.details: TD-6450 phase I clinical study (SAD/MAD): pharmacokinetics
- Type: in vivo, human
- test.context: human, plasma, oral, 60 mg, SAD 60 mg; read-out: t1/2 Mean ± SD (converted)
measure: half-life (h)
Report the value in h with no unit label.

Item `CNC(=O)N1C[C@@H](C)N(c2ccc(C(=O)Nc3ccc(-c4ccc(-c5c[nH]c([C@@H]6CCCN6C(=O)[C@@H](NC(=O)OC)C(C)C)n5)cc4)c(OC(F)(F)F)c3)cn2)C[C@@H]1C` : provide half-life 61.4

====

- experimental.details: TD-6450 phase I clinical study (SAD/MAD): pharmacokinetics
- Assay type: in vivo, human
- test.context: female, human, plasma, oral, 30 mg, Female subjects, SAD arm NCT02022306, Dose 30.00, 96 Hours; read-out: Concentration
measure: concentration at 96 h
Field note: include the unit after the figure.

Query concentration at 96 h for `CNC(=O)N1C[C@@H](C)N(c2ccc(C(=O)Nc3ccc(-c4ccc(-c5c[nH]c([C@@H]6CCCN6C(=O)[C@@H](NC(=O)OC)C(C)C)n5)cc4)c(OC(F)(F)F)c3)cn2)C[C@@H]1C` 10.8 ng/mL

====

- experimental.details: TD-6450 phase I clinical study (SAD/MAD): pharmacokinetics
- Assay type: in vivo, human
- test.context: male, human, plasma, oral, 30 mg, Male subjects, SAD arm NCT02022306, Dose 30.00, 24 Hours; read-out: Concentration
measure: concentration at 24 h
Remember to follow the number with its unit.

// fetch concentration at 24 h given entry `CNC(=O)N1C[C@@H](C)N(c2ccc(C(=O)Nc3ccc(-c4ccc(-c5c[nH]c([C@@H]6CCCN6C(=O)[C@@H](NC(=O)OC)C(C)C)n5)cc4)c(OC(F)(F)F)c3)cn2)C[C@@H]1C` 14.3 ng/mL

====

- experimental.details: TD-6450 phase I clinical study (SAD/MAD): pharmacokinetics
- Assay type: in vivo, human
- test.context: female, human, plasma, oral, 0.5 mg, Female subjects, SAD arm NCT02022306, Dose 0.50, 96 Hours; read-out: Concentration
measure: concentration at 96 h (ng/mL)
Give the number; ng/mL is assumed, so skip it.

Return concentration at 96 h for the following molecule: CNC(=O)N1C[C@@H](C)N(c2ccc(C(=O)Nc3ccc(-c4ccc(-c5c[nH]c([C@@H]6CCCN6C(=O)[C@@H](NC(=O)OC)C(C)C)n5)cc4)c(OC(F)(F)F)c3)cn2)C[C@@H]1C [TD-6450] 0

====

- experimental.details: TD-6450 phase I clinical study (SAD/MAD): pharmacokinetics
- Format: in vivo, human
- test.context: female, human, plasma, oral, 15 mg, Female subjects, SAD arm NCT02022306, Dose 15.00, 144 Hours; read-out: Concentration
measure: concentration at 144 h (ng/mL)
Your answer should be a plain number; it is taken to be in ng/mL.

Consider the compound CNC(=O)N1C[C@@H](C)N(c2ccc(C(=O)Nc3ccc(-c4ccc(-c5c[nH]c([C@@H]6CCCN6C(=O)[C@@H](NC(=O)OC)C(C)C)n5)cc4)c(OC(F)(F)F)c3)cn2)C[C@@H]1C [TD-6450] . State its measured concentration at 144 h. 4

====

- experimental.details: TD-6450 phase I clinical study (SAD/MAD): pharmacokinetics
- Type: in vivo, human
- test.context: male, human, plasma, oral, 60 mg, Male subjects, SAD arm NCT02022306, Dose 60.00, 8 Hours; read-out: Concentration (ng/ml)
measure: concentration at 8 h (ng/mL)
Write the number in ng/mL without appending the unit.

Give the value of concentration at 8 h reported for the following: `CNC(=O)N1C[C@@H](C)N(c2ccc(C(=O)Nc3ccc(-c4ccc(-c5c[nH]c([C@@H]6CCCN6C(=O)[C@@H](NC(=O)OC)C(C)C)n5)cc4)c(OC(F)(F)F)c3)cn2)C[C@@H]1C` 110

====

- experimental.details: TD-6450 phase I clinical study (SAD/MAD): pharmacokinetics
- Assay type: in vivo, human
- test.context: female, human, plasma, oral, 15 mg, Female subjects, SAD arm NCT02022306, Dose 15.00, 96 Hours; read-out: Concentration
measure: concentration at 96 h (ng/mL)
Enter your answer as a number in ng/mL; do not include the unit.

For the compound `CNC(=O)N1C[C@@H](C)N(c2ccc(C(=O)Nc3ccc(-c4ccc(-c5c[nH]c([C@@H]6CCCN6C(=O)[C@@H](NC(=O)OC)C(C)C)n5)cc4)c(OC(F)(F)F)c3)cn2)C[C@@H]1C` , report concentration at 96 h. 5.19

====

- experimental.details: TD-6450 phase I clinical study (SAD/MAD): pharmacokinetics
- Type: in vivo, human
- test.context: male, human, plasma, oral, 240 mg, Male subjects, SAD arm NCT02022306, Dose 240.00, 15 Minutes; read-out: Concentration (ng/ml)
measure: concentration at 15 min
State the value, then name its unit.

Dear colleague, please send me the reported concentration at 15 min for CNC(=O)N1C[C@@H](C)N(c2ccc(C(=O)Nc3ccc(-c4ccc(-c5c[nH]c([C@@H]6CCCN6C(=O)[C@@H](NC(=O)OC)C(C)C)n5)cc4)c(OC(F)(F)F)c3)cn2)C[C@@H]1C [TD-6450] when you can. 0 ng/mL

====

- experimental.details: TD-6450 phase I clinical study (SAD/MAD): pharmacokinetics
- Format: in vivo, human
- test.context: male, human, plasma, oral, 0.5 mg, Male subjects, SAD arm NCT02022306, Dose 0.50, 1 Hour; read-out: Concentration
measure: concentration at 1 h (ng/mL)
Numbers only here, please. The scale is ng/mL.

For the molecule `CNC(=O)N1C[C@@H](C)N(c2ccc(C(=O)Nc3ccc(-c4ccc(-c5c[nH]c([C@@H]6CCCN6C(=O)[C@@H](NC(=O)OC)C(C)C)n5)cc4)c(OC(F)(F)F)c3)cn2)C[C@@H]1C` , give its reported concentration at 1 h. 0

====

- experimental.details: TD-6450 phase I clinical study (SAD/MAD): pharmacokinetics
- Format: in vivo, human
- test.context: female, human, plasma, oral, 60 mg, Female subjects, SAD arm NCT02022306, Dose 60.00, 96 Hours; read-out: Concentration
measure: concentration at 96 h (ng/mL)
State the answer as a number, implicitly in ng/mL.

Answer with reported concentration at 96 h of `CNC(=O)N1C[C@@H](C)N(c2ccc(C(=O)Nc3ccc(-c4ccc(-c5c[nH]c([C@@H]6CCCN6C(=O)[C@@H](NC(=O)OC)C(C)C)n5)cc4)c(OC(F)(F)F)c3)cn2)C[C@@H]1C` 17.2

====

- experimental.details: TD-6450 phase I clinical study (SAD/MAD): pharmacokinetics
- Assay type: in vivo, human
- test.context: both sexes, human, plasma, oral, 120 mg, MAD 120 mg, day 14; read-out: t1/2 Mean ± SD, D14 (converted)
measure: half-life at 14 day (h)
Give the number; h is assumed, so skip it.

Fill in reported half-life at 14 day for this entry: `CNC(=O)N1C[C@@H](C)N(c2ccc(C(=O)Nc3ccc(-c4ccc(-c5c[nH]c([C@@H]6CCCN6C(=O)[C@@H](NC(=O)OC)C(C)C)n5)cc4)c(OC(F)(F)F)c3)cn2)C[C@@H]1C` 66.4
